- ASSAY TARGET: pooled human IgG (human IgG1, 2, 3 and 4) (human); also: test concentration or dose not given here
- TEST PROTOCOL: cell-based or functional assay
ASSAY ENDPOINT: Enzyme Activity Endpoint Assay: Fab′2 (ng/µL)
API: value field is a number in ng/µL; no unit string.

binder="PRT-426 (enzyme) MTITSVWTKGVTPPTPEDFRYNNEDVLHAPYVANQGWYDITKTFDGKDNLLCGAATAGNMLHWWFDQNKEEIERYLKKHPEKQKIIFNNQELFDVKAAIDTKDSQTNSKLFNYFRDKAFPNLSARQLGVFPDLVLDMFINGYYLNLGKTQSTDVNRPYQDKDKRGGIFDAVFTRGDQTTLLTARHDLKNKGLNEISDLIKQELTEGKALALSHTYANVRINHVINLWGADFDAEGNLIAIYVTDSDANASIGMKKYFVGVNANGKVAISAKKIEGDNIGAQVLGLFTLSTGQDIWQKLS" assay_endpoint="Enzyme Activity Endpoint Assay: Fab′2" unit_descriptor=ng/µL observed_measurement=508

# input Suppose we examine the binder PRT-417 (enzyme) MTITSVWTKGVTPPTPEDFRYNNEDVLHAPYVANQGWYDITKTFDGKDNLLCGAATAGNMLHWWFDQNKEEIERYLKKHPEKQKIIFNNQELFDVKAAIDTKDSQTNSKLFNYFRDKAFPNLSARQLGVMPDLVLDMFINGYYLNLGKTQSTDVNRPYQDKDKRGGIFDAVFTRGDQTTLLTARHDLKNKGLNEISDLIKQELTEGKALALSHTYANVRINHVINLWGADFDAEGELIAIYVTDSDANASIGMKKYFVGVNANGKVAISAKKIEGDNIGAQVLGLFTLSTGQDIWQKLS ; what Enzyme Activity Endpoint Assay: Fab′2 value has been reported?
# output 193
